- Tested on: HL60 cells
- assay notes: AsedaSciences SYSTEMETRIC Cell Health Screen (flow cytometry toxicity profiling)
- condition notes: HL60, 4 h, 5 nM–100 µM, probability 0–1, n = 2
- Protocol: To prioritize further optimization, in addition to cellular potency, we utilized the AsedaSciences® […]® Cell Health Screen. […] In a 384-well platform, HL60 cells were exposed to a 10-step, 3 × dilution series of each test compound (5 nM–100 µM) for 4 h at 37 °C with 5% CO2. […] Fluorescence and forward/side-scatter data were collected using automated FC with no gating. […]
assay endpoint: CC: Cell Cycle score

{"compound": "C#Cc1ccc(F)c(Nc2ncnc3cc(I)ccc23)c1 [Compound 38]", "endpoint result": 0.98}
{"compound": "Cc1cn([C@@H]2C[C@@H](O)[C@H](CO)O2)c(=O)[nH]c1=O [Telbivudine, reference compound]", "endpoint result": 0.020}
{"compound": "C#Cc1cccc(Nc2ncnc3cc(C#N)ccc23)c1 [Compound 17]", "endpoint result": 0.25}
{"compound": "CN(C)C/C=C/C(=O)Nc1cc2c(Nc3ccc(F)c(Cl)c3)ncnc2cc1O[C@H]1CCOC1 [Afatinib, reference compound]", "endpoint result": 0.93}
{"compound": "CSc1ccc2c(c1)N(CCC1CCCCN1C)c1ccccc1S2 (stereo not drawn) [Thioridazine, reference compound]", "endpoint result": 0.89}
{"compound": "Cc1ccc(=O)n(-c2ccccc2)c1 [Pirfenidone, reference compound]", "endpoint result": 0.060}
{"compound": "C#Cc1cccc(Nc2c(C#N)cnc3ccc(I)cc23)c1 [Compound 28]", "endpoint result": 0.91}
{"compound": "C#Cc1cccc(Nc2ncnc3cc(I)ccc23)c1 [Compound 15]", "endpoint result": 0.95}
{"compound": "CC1(C)NC(=O)N(c2ccc([N+](=O)[O-])c(C(F)(F)F)c2)C1=O [Nilutamide, reference compound]", "endpoint result": 0.68}

----------
- Test system: HL60 cells
- assay notes: AsedaSciences SYSTEMETRIC Cell Health Screen (flow cytometry toxicity profiling)
- condition notes: SYSTEMETRIC Cell Health Screen; assay n=2
Listed below: Cell Health Toxcity Profile MMP (Mitochondrial membrane depolarization) values for each entry.
assay endpoint: Cell Health Toxcity Profile MMP (Mitochondrial membrane depolarization)

{"compound": "C#Cc1cccc(Nc2c(C#N)cnc3ccccc23)c1 [Compound 24]", "endpoint result": 0.97}
{"compound": "C#Cc1cccc(Nc2c(C#N)cnc3cc(Cl)ccc23)c1 [Compound 30]", "endpoint result": 0.080}
{"compound": "C#Cc1cccc(Nc2c(C#N)cnc3cc(I)ccc23)c1 [Compound 32]", "endpoint result": 0.99}
{"compound": "C#Cc1cccc(Nc2c(C#N)cnc3cc(Br)ccc23)c1 [Compound 31]", "endpoint result": 0.84}
{"compound": "C#Cc1cccc(Nc2c(C#N)cnc3cc(OC)ccc23)c1 [Compound 33]", "endpoint result": 0.22}
{"compound": "C#Cc1cccc(Nc2c(C#N)cnc3cc(OC)c(OC)cc23)c1 [Compound 22]", "endpoint result": 0.39}
{"compound": "C#Cc1cccc(Nc2c(C#N)cnc3ccc(F)cc23)c1 [Compound 25]", "endpoint result": 0.96}
{"compound": "C#Cc1cccc(Nc2c(C#N)cnc3ccc(S(C)(=O)=O)cc23)c1 [Compound 29]", "endpoint result": 0.021}
{"compound": "C#Cc1cccc(Nc2c(C#N)cnc3ccc(OC)cc23)c1 [Compound 23]", "endpoint result": 0.28}
{"compound": "C#Cc1cccc(Nc2c(C#N)cnc3ccc(I)cc23)c1 [Compound 28]", "endpoint result": 0.99}
{"compound": "C#Cc1cccc(Nc2c(C#N)cnc3ccc(Br)cc23)c1 [Compound 27]", "endpoint result": 0.96}
{"compound": "C#Cc1cccc(Nc2c(C#N)cnc3ccc(Cl)cc23)c1 [Compound 26]", "endpoint result": 0.99}
